- Method summary: Metabolic stability in mouse liver microsomes assessed as half-life preincubated for 2 hrs followed by NADPH regenerating agent addition and measured upto 4 hrs by LC-MS analysis
- Format: ADME, Microsome
- Condition context: time < 6 hrs
Result type: half-life (min)
Provide only the numeric value, understood in min.

Reported half-life, molecule `O=C(NCc1ncccn1)c1csc(-c2ccc(OC(F)F)c(OCC3CC3)c2)n1` : ____
28.6

====

- Method summary: Tmax in ICR(CD-1) mouse at 10 mg/kg, po measured upto 24 hrs by LC-MS/MS analysis
- Type: ADME, organism-based
- Condition context: in vivo
Result type: Tmax (h)
Provide only the numeric value, understood in h.

Reported Tmax, compound `O=C(NCc1ncccn1)c1csc(-c2ccc(OC(F)F)c(OCC3CC3)c2)n1` : ____
1.08

====

- Method summary: Cytotoxicity against mouse RAW264.7 cells incubated for 24 hrs by CCK8 assay
- Format: toxicity, cell-based
The following molecules are shown together with reported CC50 at 24 h values.

1) O=C(NCc1c(F)cccc1F)c1csc(-c2ccc(OC(F)F)c(OCC3CC3)c2)n1; > 50 µM

# next molecule below
Reported CC50 at 24 h, molecule `O=C(NCc1ncccn1)c1csc(-c2ccc(OC(F)F)c(OCC3CC3)c2)n1` : ____
> 50 µM

====

- Method summary: Drug concentration in ICR(CD-1) mouse blood at 1.2% administered topically and measured after 2 hrs by LC-MS/MS analysis
- Format: ADME, tissue-based
- Condition context: topical or ocular, route top, read-out: Ct
Result type: concentration at 2 h
Please don't drop the unit; write it after the number.

Reported concentration at 2 h, compound `O=C(NCc1ncccn1)c1csc(-c2ccc(OC(F)F)c(OCC3CC3)c2)n1` : ____
0.35 ng/mL

====

- Target entity: 3',5'-cyclic-AMP phosphodiesterase 4D (Homo sapiens, UniProt Q08499)
- Sequence (Q08499 whole entry): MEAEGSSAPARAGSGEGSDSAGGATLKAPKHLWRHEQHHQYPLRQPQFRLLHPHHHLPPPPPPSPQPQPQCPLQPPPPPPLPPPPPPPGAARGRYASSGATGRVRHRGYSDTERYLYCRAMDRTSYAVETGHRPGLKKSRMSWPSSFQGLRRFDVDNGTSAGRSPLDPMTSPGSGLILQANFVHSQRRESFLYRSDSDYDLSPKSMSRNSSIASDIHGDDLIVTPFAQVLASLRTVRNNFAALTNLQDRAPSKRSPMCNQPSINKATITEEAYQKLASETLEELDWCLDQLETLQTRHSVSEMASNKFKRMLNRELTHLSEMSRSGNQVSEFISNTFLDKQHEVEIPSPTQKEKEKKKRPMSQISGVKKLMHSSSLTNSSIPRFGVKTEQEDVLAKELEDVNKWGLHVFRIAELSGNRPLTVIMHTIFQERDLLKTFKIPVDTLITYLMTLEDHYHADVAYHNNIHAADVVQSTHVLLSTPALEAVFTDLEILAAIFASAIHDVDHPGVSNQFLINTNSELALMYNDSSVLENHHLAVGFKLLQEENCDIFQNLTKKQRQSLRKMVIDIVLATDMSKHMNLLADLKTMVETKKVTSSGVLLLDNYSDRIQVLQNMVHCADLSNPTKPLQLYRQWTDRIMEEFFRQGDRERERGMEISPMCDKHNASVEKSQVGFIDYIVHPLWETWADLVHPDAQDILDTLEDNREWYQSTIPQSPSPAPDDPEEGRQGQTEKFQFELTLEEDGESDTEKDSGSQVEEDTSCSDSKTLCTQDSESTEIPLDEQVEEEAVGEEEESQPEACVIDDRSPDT
- Method summary: Inhibition of PDE4D (unknown origin)
Result type: IC50 (µM)
Provide only the numeric value, understood in µM.

Report IC50 for `CCOc1cc([C@@H](CS(C)(=O)=O)N2C(=O)c3csc(NC(C)=O)c3C2=O)ccc1OC` tested on 3',5'-cyclic-AMP phosphodiesterase 4D (Homo sapiens, UniProt Q08499).
0.114

====

The following compounds are shown together with reported inhibition values.
- Target entity: 3',5'-cyclic-AMP phosphodiesterase 4D (Homo sapiens, UniProt Q08499)
- Method summary: Inhibition of recombinant full-length PDE4D2 (unknown origin) at 1 uM using FAM-cAMP as substrate preincubated for 15 mins followed by substrate addition and measured after 30 mins by plate reader assay relative to control
- Condition context: time 45.0 min

Field: example entries. Status: answers known.
1. O=C(Nc1ccc2ncsc2c1)c1cnn2c(-c3ccc(OC(F)F)c(OCC4CC4)c3)ccnc12; < 73.1%
2. CCC(CC)NC(=O)c1cnn2c(-c3ccc(OC(F)F)c(OCC4CC4)c3)ccnc12; < 73.1%

Reported inhibition, compound `O=C(NCc1cc(F)ccc1F)c1cnn2c(-c3ccc(OC(F)F)c(OCC4CC4)c3)ccnc12` : ____
< 73.1%
